# targetSystem: memapsin 2 (Homo sapiens, UniProt P56817)
# Sequence (P56817 46-501): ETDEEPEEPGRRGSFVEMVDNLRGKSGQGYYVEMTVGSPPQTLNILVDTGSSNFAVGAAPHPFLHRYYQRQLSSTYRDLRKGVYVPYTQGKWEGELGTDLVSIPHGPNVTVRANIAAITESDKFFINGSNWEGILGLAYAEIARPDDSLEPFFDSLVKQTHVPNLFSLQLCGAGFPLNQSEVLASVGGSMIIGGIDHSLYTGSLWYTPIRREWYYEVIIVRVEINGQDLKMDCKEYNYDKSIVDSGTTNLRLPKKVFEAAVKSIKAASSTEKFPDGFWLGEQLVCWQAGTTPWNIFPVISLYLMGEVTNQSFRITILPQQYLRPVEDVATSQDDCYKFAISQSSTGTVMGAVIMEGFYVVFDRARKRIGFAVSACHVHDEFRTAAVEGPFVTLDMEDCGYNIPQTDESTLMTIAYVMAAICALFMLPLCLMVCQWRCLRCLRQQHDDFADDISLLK
pKi: −log10 of the molar value.
recordedEndpoint: pKi

Please review the entries below; each comes with its answer.
Ask: Tell us which pKi value is on record for CSC[C@H](NC(=O)OCc1noc(C)n1)C(=O)N[C@H](CC(C)C)[C@@H](O)C[C@@H](C)C(=O)N[C@@H](C(=O)NCC(C)C)C(C)C
Reply: 6.00 to 7.00

Ask: Specify pKi for Cc1coc(COC(=O)N[C@@H](CS(C)(=O)=O)C(=O)N[C@@H](CC(C)C)[C@@H](O)C[C@@H](C)C(=O)N[C@H](C(=O)NCC(C)C)C(C)C)n1 and stop.
Reply: > 7.00

// next item, pKi requested
Ask: Please report the measured pKi for CSC[C@H](NC(=O)CCc1nc(C)cs1)C(=O)N[C@H](CC(C)C)[C@@H](O)C[C@@H](C)C(=O)N[C@@H](C(=O)NCC(C)C)C(C)C
Reply: > 7.00
